Just for reference, the supplement of paper PMC7156485 is where these values come from.

Tested on: HCC1569
Test: cell number relative to DMSO (% of DMSO); higher = more cells (less growth inhibition / toxicity)
Conditions: concentration: 10 µM; 24 h
// cell number lookup, one value per entry
Format: numeric value only, no unit, no commentary.

Below are worked cases with known answers.
>  <compound>
O=C(Nc1ccc(Oc2ccnc3[nH]ccc23)c(F)c1)c1cccn(-c2ccc(F)cc2)c1=O

>  <testSystem>
HCC1569

>  <obsValue>
102

$$$$
>  <compound>
CCCCN1CCCCC1C(=O)Nc1c(C)cccc1C (stereo not given)

>  <testSystem>
HCC1569

>  <obsValue>
97.9

$$$$
>  <compound>
O=c1c(-c2ccc(O)cc2)coc2cc(O)cc(O)c12 [Genistein]

>  <testSystem>
HCC1569

>  <obsValue>
97.9

$$$$
>  <compound>
CC1CN(S(=O)(=O)c2cccc3cnccc23)CCN1.Cl.Cl (stereo not given)

>  <testSystem>
HCC1569

>  <obsValue>
111

$$$$

The compound identified as CCCCCCCC/C=C\CCCCCCCC(=O)NCC(=O)O [[(9Z)-9-octadecenoylamino]acetic acid] registered its cell number at 99.2

----------
Test system: TDF
Assay: cell number relative to DMSO (% of DMSO); higher = more cells (less growth inhibition / toxicity)
Conditions: concentration: 10 µM; 24 h
Quick rule: cell number of at least 100 means class 1, below that means class 0.

Examples with answers:
>  <molecule>
COC(=O)CNC(=O)C(=O)OC [methyl 2-(2-methoxy-2-oxoethylamino)-2-oxoacetate]

>  <label>
class 1

$$$$
>  <molecule>
COc1cc(OC)cc(-c2cc3cnc(N)nc3nc2NC(=O)NC(C)(C)C)c1

>  <label>
class 0

$$$$
>  <molecule>
Oc1cc(O)c2c(c1)OC(c1ccc(O)c(O)c1)C(O)C2 (single isomer, unassigned; (-)) [(-)-Epicatechin]

>  <label>
class 1

$$$$
>  <molecule>
CC(C)CCN1c2nc(Nc3cc(F)c(O)c(F)c3)ncc2N(C)C(=O)C1C (stereo not given)

>  <label>
class 0

$$$$
>  <molecule>
CC(C)(C#N)c1ccc(N2C(=O)OCc3cnc4ccc(-c5cnc6ccccc6c5)cc4c32)cc1

>  <label>
class 0

$$$$

Confirm if cell number reported for the molecule Nc1sc2c(c1C(=O)c1ccc(Cl)cc1)CCCC2 is 100 or above.
class 0

Exam item: decide whether the reported cell number for CC(=O)OCC1OC([S-])C(OC(C)=O)C(OC(C)=O)C1OC(C)=O.CCP(CC)CC.[Au+] (stereo not given) is at least 100.
class 0

Please tell me: is the molecule CC(C)(CO)C(O)C(=O)NCCC(=O)O (stereo not given) at or over 100 in terms of cell number?
class 0

Could you verify whether the entry CCCn1c(=O)c2[nH]c(-c3ccc(OCC(=O)NCCN)cc3)nc2n(CCC)c1=O shows cell number of no less than 100?
class 1

Record CC(C)c1ccc2c(c1)c(SC(C)(C)C)c(CC(C)(C)C(=O)[O-])n2Cc1ccc(Cl)cc1.[Na+] ; criterion: cell number no lower than 100. Met?
class 1

Textbook exercise: given the entry Cc1nc2c([nH]1)c(=O)n(C)c(=O)n2Cc1ccco1 , state whether its cell number is greater than or equal to 100.
class 1

Assess whether reported cell number for NC1CONC1=O (racemic) [DL-Cycloserine] sits at 100 or higher.
class 0

Check if cell number >= 100 (inclusive). Item: Cc1ccc(S(=O)(=O)NC(=O)NN2CC3CCCC3C2)cc1 (stereo not given) [Gliclazide]
class 1

Textbook exercise: given the entry CSCC[C@@H](C=O)NC(=O)[C@H](CC(C)C)NC(=O)[C@H](CC(C)C)NC(C)=O , state whether its cell number is greater than or equal to 100.
class 0

Kindly determine if cell number recorded for CC(C)CC(NC(=O)C1OC1C(=O)O)C(=O)NCCCCN=C(N)N (stereo not given) is above or exactly 100.
class 0

I'd appreciate it if you could say whether COc1ccc(C2Sc3ccccc3N(CCN(C)C)C(=O)C2OC(C)=O)cc1 (stereo not given) has cell number at least equal to 100.
class 1

Determine whether measured cell number meets or exceeds 100 for CCc1nc(-c2cccc(C)c2)c(-c2ccnc(NC(=O)c3ccccc3)c2)s1
class 0

Exam item: decide whether the reported cell number for Cc1nc2ccc(Oc3ccc(F)cc3)cc2c(=O)n1C[C@H]1CCCN(C(C)C)C1.Cl is at least 100.
class 1

Is it the case that CCN(CC)CCNC(=O)c1cc(Cl)c(N)cc1OC.Cl [Metoclopramide hydrochloride] has cell number reaching or exceeding 100?
class 1

----------
Tested on: TDF
Assay: H1.0 immunofluorescence intensity relative to DMSO (% of DMSO); higher = stronger H1.0 induction, active = 120 or more
Conditions: concentration: 10 µM; 24 h
endpointName: H1.0 immunofluorescence intensity
Lab note: jot the number down without any unit.

>  <compound>
CC1CNCCN1S(=O)(=O)c1cccc2cnccc12.Cl.Cl (centres undefined)

>  <testSystem>
TDF

>  <endpointName>
H1.0 immunofluorescence intensity

>  <obsValue>
88.4

$$$$

get_value(item= CC1CCC2(OC1)OC1CC3C4CCC5CC(O)CCC5(C)C4CCC3(C)C1C2C (centres undefined) [Sarsasapogenin] , readout=H1.0 immunofluorescence intensity) returns 106

Lookup result for C1CCN2CC3CC(CN4CCCCC34)C2C1.O.O.O.O.O.O=S(=O)(O)O (centres undefined) ; measured H1.0 immunofluorescence intensity: 107

Query CCCCN(CCCC)CC(O)c1cc(Cl)cc2c1-c1ccc(Cl)cc1/C2=C/c1ccc(Cl)cc1 (centres undefined) yields H1.0 immunofluorescence intensity of 90.7

Form field H1.0 immunofluorescence intensity, entry CC1=NS(=O)(=O)c2cc(Cl)ccc2N1 [Diazoxide] : 101

Sure, the documented H1.0 immunofluorescence intensity for COC(=O)N=NC=C1C=[N+]([O-])c2ccccc2N1O [Carbadox] is 95.8

For this compound ( O=C(ON1C(=O)CCC1=O)N1CCN(C(c2ccc(Cl)cc2)c2ccc(Cl)cc2)CC1 ), measured H1.0 immunofluorescence intensity is 112

# H1.0 immunofluorescence intensity of CCCCCC(O)C=CC=CCC=CCC=CCCCC(=O)O (centres undefined) = 96.7

Form field H1.0 immunofluorescence intensity, entry CNc1nccc(-c2cccnc2Oc2cc(C(=O)Nc3cccc(C(F)(F)F)c3)ccc2C)n1 : 92.9

Documented H1.0 immunofluorescence intensity of CCN(CC)C(=O)c1ccc(O)c(OC)c1 [Vanillic acid diethylamide] : 94.3

----------
System: TDF
Assay: H1.0 immunofluorescence intensity relative to DMSO (% of DMSO); higher = stronger H1.0 induction, active = 120 or more
Details: concentration: 10 µM; 24 h
endpointName: H1.0 immunofluorescence intensity
I only need the number, thanks.

Examples from the recorded data:
>  <compound>
O=C(O)CCC(C(=O)O)N1C(=O)c2ccccc2C1=O (centres undefined)

>  <H1.0 immunofluorescence intensity>
91.4

$$$$
>  <compound>
CN(C)CCC(c1ccc(Cl)cc1)c1ccccn1.O=C(O)C=CC(=O)O (racemic)

>  <H1.0 immunofluorescence intensity>
103

$$$$
>  <compound>
C#CCN(C)Cc1ccccc1.Cl [Pargyline hydrochloride]

>  <H1.0 immunofluorescence intensity>
91.7

$$$$
>  <compound>
CC(C)CC(NC(=O)C(O)C(N)Cc1ccccc1)C(=O)O.Cl (centres undefined) [Epibestatin hydrochloride]

>  <H1.0 immunofluorescence intensity>
91.8

$$$$
>  <compound>
CC(C)C(CO)Nc1nc(Nc2ccc(C(=O)O)c(Cl)c2)c2ncn(C(C)C)c2n1 (centres undefined)

>  <H1.0 immunofluorescence intensity>
96.7

$$$$

Quick note, H1.0 immunofluorescence intensity for S=C([S-])OC1CC2CC1C1CCCC21.[K+] (centres undefined) landed at 95.2

H1.0 immunofluorescence intensity measured on CN(C)CCCC1(c2ccc(F)cc2)OCc2cc(C#N)ccc21 (centres undefined) = 91.3

# H1.0 immunofluorescence intensity of O=C(NCCCCCCNC(=O)ON=C1CCCCC1)ON=C1CCCCC1 = 98

Reported H1.0 immunofluorescence intensity for Cn1cnc2c(NCc3ccccc3)nc(NCCO)nc21 was 98.6

----------
Test system: HCC1569
Assay: H1.0 immunofluorescence intensity relative to DMSO (% of DMSO); higher = stronger H1.0 induction, active = 140 or more
Conditions: concentration: 10 µM; 24 h
Write down one outcome, taken from active, inactive

For CC1OC(OCC2OC(Oc3cc(O)c4c(c3)OC(c3ccc(O)cc3)CC4=O)C(O)C(O)C2O)C(O)C(O)C1O (configuration not stated) [Narirutin] , which call appears in the assay record?
inactive

Called result for Oc1cc2c(c(Cl)c1O)CCNCC2c1ccccc1 (configuration not stated)
inactive

So what was the verdict on COc1ccc2[nH]c(S(=O)Cc3ncc(C)c(OC)c3C)nc2n1 (configuration not stated) [Tenatoprazole] in this test?
inactive

Hi team, can someone confirm the assay call for CN(C)CCOC(c1ccccc1)c1ccccc1.Cl [Diphenhydramine hydrochloride] ?
inactive

Just curious, what result did CCCc1nc2c(C)cc(-c3nc4ccccc4n3C)cc2n1Cc1ccc(-c2ccccc2C(=O)O)cc1 [Telmisartan] get here?
inactive

What classification did Cc1cc(Nc2cc(N3CCN(C)CC3)nc(Sc3ccc(NC(=O)C4CC4)cc3)n2)n[nH]1 [Tozasertib] end up with in this test?
active

# fetch the recorded call for O=C1Nc2ccccc2C1=C1Nc2ccccc2C1=O [Indirubin] here
inactive
